Target: EHMT1 (Homo sapiens, UniProt Q9H9B1)
Sequence (Q9H9B1 whole entry, species assumed): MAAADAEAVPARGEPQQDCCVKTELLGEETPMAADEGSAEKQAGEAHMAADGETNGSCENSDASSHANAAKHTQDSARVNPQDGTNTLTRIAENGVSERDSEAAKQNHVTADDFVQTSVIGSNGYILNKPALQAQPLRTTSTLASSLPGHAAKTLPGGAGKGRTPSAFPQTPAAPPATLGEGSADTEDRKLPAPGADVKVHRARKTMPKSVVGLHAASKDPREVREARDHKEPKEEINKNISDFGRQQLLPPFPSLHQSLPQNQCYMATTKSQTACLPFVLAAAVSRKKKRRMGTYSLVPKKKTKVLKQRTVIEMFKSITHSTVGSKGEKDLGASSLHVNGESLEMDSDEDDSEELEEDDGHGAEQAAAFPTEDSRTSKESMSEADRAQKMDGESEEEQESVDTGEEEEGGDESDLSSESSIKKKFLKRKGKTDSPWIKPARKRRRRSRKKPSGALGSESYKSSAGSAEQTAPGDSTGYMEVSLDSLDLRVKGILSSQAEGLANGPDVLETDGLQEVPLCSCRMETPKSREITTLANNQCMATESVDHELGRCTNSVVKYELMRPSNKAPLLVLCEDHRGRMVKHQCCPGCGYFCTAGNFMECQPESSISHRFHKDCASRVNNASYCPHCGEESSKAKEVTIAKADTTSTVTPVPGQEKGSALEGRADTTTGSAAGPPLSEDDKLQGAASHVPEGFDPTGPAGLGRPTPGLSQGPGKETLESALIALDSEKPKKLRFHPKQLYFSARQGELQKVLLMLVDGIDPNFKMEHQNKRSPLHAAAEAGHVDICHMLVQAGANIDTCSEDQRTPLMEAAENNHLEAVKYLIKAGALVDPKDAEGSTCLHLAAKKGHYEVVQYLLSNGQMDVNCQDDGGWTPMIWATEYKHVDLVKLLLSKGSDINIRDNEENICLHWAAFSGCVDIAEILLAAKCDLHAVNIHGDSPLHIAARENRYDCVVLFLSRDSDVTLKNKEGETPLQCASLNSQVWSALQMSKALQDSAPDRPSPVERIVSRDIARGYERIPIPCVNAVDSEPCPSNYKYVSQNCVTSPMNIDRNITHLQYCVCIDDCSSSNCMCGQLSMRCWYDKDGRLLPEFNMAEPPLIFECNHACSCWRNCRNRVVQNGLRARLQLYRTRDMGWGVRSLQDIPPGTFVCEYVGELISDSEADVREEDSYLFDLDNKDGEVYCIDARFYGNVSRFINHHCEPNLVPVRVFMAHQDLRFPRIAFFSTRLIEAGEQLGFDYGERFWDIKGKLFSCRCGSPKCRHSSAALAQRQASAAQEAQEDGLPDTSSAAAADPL
Test Name: EHMT1 enzyme assay on peptide substrate (EHMT1 PEP)
Assay type: biochemical
Condition Notes: Table VI; read-out: EHMT1 PEP IC50
pIC50: −log10 of the molar value.
Endpoint Label: pIC50

| Compound | pIC50 |
| --- | --- |
| COc1cc2c(C3CCN(C)CC3)cc(N3CCCCC3)nc2cc1OCCCN1CCCC1 | > 7.00 |
| COc1cc2c(C3CCN(C)CC3)cc(C)nc2cc1OCCCN1CC[C@@H](F)C1 | > 7.00 |
| CNc1cc(C)nc(Nc2ccc(OC)c(OC[C@@H]3CCN(C(C)C)C3)c2)n1 | 6.00 to 7.00 |
| CCN1CCC(N(C)Cc2cc(Nc3nc(C)cc(NC)n3)ccc2OC)C1 (centres unmarked) | 5.00 to 6.00 |

Entry CCN1CC(COc2cc3nc(C)nc(C4CCN(C)CC4)c3cc2OC)C1 needs its pIC50 filled in; supply it. 5.00 to 6.00
